- tested_target: Human recombinant PDE2A (hPDE2A) (Homo sapiens, UniProt O00408)
- Construct: His tag (inferred from metal chelate purification); made in house; host or cells: Sf9 insect cells (baculovirus)
- Sequence (O00408 whole entry): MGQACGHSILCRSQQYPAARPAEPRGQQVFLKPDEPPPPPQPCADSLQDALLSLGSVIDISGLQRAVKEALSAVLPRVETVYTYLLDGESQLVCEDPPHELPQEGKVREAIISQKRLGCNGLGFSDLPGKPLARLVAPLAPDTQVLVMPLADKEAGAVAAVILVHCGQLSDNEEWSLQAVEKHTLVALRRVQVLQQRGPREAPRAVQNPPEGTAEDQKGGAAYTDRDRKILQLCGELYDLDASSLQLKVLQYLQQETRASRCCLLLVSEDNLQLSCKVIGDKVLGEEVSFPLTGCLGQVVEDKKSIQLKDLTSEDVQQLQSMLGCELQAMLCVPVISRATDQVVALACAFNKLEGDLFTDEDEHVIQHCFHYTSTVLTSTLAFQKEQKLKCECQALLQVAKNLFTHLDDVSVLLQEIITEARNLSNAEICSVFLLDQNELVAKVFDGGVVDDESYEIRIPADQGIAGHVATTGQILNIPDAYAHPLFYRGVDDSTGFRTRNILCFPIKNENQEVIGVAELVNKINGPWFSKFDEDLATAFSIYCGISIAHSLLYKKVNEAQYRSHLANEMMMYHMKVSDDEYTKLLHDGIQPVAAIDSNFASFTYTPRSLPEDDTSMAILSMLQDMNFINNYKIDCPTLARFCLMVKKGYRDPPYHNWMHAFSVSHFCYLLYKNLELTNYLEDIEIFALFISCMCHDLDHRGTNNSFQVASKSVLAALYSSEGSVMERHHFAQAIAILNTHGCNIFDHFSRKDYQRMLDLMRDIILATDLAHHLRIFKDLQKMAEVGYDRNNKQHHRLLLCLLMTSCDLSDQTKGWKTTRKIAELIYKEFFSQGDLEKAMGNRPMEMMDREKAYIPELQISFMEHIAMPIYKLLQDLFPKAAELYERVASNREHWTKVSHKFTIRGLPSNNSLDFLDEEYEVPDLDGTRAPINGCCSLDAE
- protocol_text: In vitro assay PDE2A (SPA, 3H-cGMP hydrolysis)
- Type: biochemical
- details: read-out: hPDE2A pIC50 (converted)
// IC50 lookup, one value per entry
reported_metric: IC50 (nM)

{"compound": "O=C(c1cc(F)cc(F)c1)N1[C@H]2CC[C@H](c3cc(C(F)F)nc4ncnn34)[C@@H]1CC2", "reported_metric": "IC50", "reported_result": 141}
{"compound": "COc1cc(C(=O)N2CC[C@@H](C)[C@H](c3cc(C)nc4ncnn34)C2)c(F)cn1", "reported_metric": "IC50", "reported_result": 11.5}
{"compound": "Cc1cc(C(=O)N2[C@H]3CC[C@H](c4cc(C(F)F)nc5ncnn45)[C@@H]2CC3)cnc1C", "reported_metric": "IC50", "reported_result": 10.2}
{"compound": "C[C@@H]1CCN(C(=O)c2ccc(Cl)c(C3CC3)c2)C[C@H]1c1cc(C(F)F)nc2ncnn12", "reported_metric": "IC50", "reported_result": 1.02}
{"compound": "Cc1ccc2cc(C(=O)N3[C@H]4CC[C@H](c5cc(C(F)F)nc6ncnn56)[C@@H]3CC4)c(C)nc2c1", "reported_metric": "IC50", "reported_result": 18.6}
{"compound": "C[C@]1(c2cc(C(F)F)nc3ncnn23)CCCN(C(=O)c2ccc3nccn3c2)C1 (single isomer, unassigned)", "reported_metric": "IC50", "reported_result": 575}
{"compound": "O=C(c1ccc2occc2c1)N1CCC[C@](F)(c2cc(C(F)F)nc3ncnn23)C1 (single isomer, unassigned)", "reported_metric": "IC50", "reported_result": 28.2}

* * *

- tested_target: Human recombinant PDE3A (hPDE3A) (Homo sapiens, UniProt Q14432)
- Construct: purchased Scottish Biomedical; host or cells: Sf9 insect cells
- Sequence (Q14432 whole entry): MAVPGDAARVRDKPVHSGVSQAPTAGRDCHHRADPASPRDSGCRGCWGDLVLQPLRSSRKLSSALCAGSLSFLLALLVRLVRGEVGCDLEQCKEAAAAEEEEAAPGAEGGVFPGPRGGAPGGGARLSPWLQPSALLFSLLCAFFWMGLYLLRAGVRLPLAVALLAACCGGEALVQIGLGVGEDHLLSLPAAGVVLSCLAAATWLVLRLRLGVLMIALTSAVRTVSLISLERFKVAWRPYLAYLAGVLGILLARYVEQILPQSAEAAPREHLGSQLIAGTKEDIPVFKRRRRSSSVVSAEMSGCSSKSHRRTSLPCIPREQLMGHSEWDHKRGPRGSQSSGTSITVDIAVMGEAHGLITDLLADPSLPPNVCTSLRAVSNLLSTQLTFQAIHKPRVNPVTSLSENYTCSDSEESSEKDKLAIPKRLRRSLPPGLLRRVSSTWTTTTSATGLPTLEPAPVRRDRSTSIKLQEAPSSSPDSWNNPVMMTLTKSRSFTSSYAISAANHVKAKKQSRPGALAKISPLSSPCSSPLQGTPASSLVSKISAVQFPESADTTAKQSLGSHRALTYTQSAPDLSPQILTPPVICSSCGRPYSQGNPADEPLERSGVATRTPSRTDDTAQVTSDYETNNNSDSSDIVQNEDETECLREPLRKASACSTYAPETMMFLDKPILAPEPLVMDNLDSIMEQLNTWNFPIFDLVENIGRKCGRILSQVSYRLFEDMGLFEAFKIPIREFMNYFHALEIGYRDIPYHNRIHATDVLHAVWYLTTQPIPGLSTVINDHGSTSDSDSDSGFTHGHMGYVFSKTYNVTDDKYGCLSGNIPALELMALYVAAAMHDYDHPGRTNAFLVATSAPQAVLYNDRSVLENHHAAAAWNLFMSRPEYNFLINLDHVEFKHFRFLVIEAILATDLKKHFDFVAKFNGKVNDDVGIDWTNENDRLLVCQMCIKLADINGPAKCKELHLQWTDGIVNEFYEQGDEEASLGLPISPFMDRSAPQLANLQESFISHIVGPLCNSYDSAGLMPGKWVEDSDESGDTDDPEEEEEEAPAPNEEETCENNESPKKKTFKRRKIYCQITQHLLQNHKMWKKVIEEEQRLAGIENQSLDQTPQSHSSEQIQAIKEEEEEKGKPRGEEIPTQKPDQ
- protocol_text: In vitro assay PDE3A (SPA, 3H-cAMP hydrolysis);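 also: the method names PDE3A and the table heading PDE3B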
- Assay type: biochemical
- details: read-out: hPDE3B Emax; read-out: Emax
Mark met for Emax under 60%, not met if at or over.

{"molecule": "Cc1cc(C(=O)N2CC[C@@H](C)[C@H](c3cc(C(F)F)nc4ncnn34)C2)cc(C(C)C)n1", "tested_target": "Human recombinant PDE3A (hPDE3A) (Homo sapiens, UniProt Q14432)", "assigned_category": "not met"}
{"molecule": "Cn1cnc2cc(C(=O)N3[C@H]4CC[C@H](c5cc(C(F)F)nc6ncnn56)[C@@H]3CC4)ccc21", "tested_target": "Human recombinant PDE3A (hPDE3A) (Homo sapiens, UniProt Q14432)", "assigned_category": "not met"}
{"molecule": "Cc1ccc2cc(C(=O)N3[C@H]4CC[C@H](c5cc(C(F)F)nc6ncnn56)[C@@H]3CC4)c(C)nc2c1", "tested_target": "Human recombinant PDE3A (hPDE3A) (Homo sapiens, UniProt Q14432)", "assigned_category": "met"}
{"molecule": "C[C@@H]1CCN(C(=O)c2ccncc2Cl)C[C@H]1c1cc(C(F)F)nc2ncnn12", "tested_target": "Human recombinant PDE3A (hPDE3A) (Homo sapiens, UniProt Q14432)", "assigned_category": "met"}
{"molecule": "O=C(c1ccc(F)c(C(F)(F)F)c1)N1[C@H]2CC[C@H](c3cc(C(F)F)nc4ncnn34)[C@@H]1CC2", "tested_target": "Human recombinant PDE3A (hPDE3A) (Homo sapiens, UniProt Q14432)", "assigned_category": "met"}
{"molecule": "O=C(c1cc(Cl)cc(Cl)c1)N1[C@H]2CC[C@H](c3cc(C(F)F)nc4ncnn34)[C@@H]1CC2", "tested_target": "Human recombinant PDE3A (hPDE3A) (Homo sapiens, UniProt Q14432)", "assigned_category": "not met"}
{"molecule": "Cc1nc(C(F)(F)F)ccc1C(=O)N1CC[C@@H](C)[C@H](c2cc(C(F)F)nc3ncnn23)C1", "tested_target": "Human recombinant PDE3A (hPDE3A) (Homo sapiens, UniProt Q14432)", "assigned_category": "not met"}
{"molecule": "CC(C)c1n[nH]cc1C(=O)N1CC[C@@H](C)[C@H](c2cc(C(F)F)nc3ncnn23)C1", "tested_target": "Human recombinant PDE3A (hPDE3A) (Homo sapiens, UniProt Q14432)", "assigned_category": "met"}
{"molecule": "C[C@@H]1CCN(C(=O)c2c(Cl)cncc2Cl)C[C@H]1c1cc(C(F)F)nc2ncnn12", "tested_target": "Human recombinant PDE3A (hPDE3A) (Homo sapiens, UniProt Q14432)", "assigned_category": "met"}
{"molecule": "COc1c(C)cc(C(=O)N2CC[C@@H](C)[C@@](F)(c3cc(C(F)F)nc4ncnn34)C2)cc1C", "tested_target": "Human recombinant PDE3A (hPDE3A) (Homo sapiens, UniProt Q14432)", "assigned_category": "met"}
{"molecule": "Cc1cnc(C(=O)N2[C@H]3CC[C@H](c4cc(C(F)F)nc5ncnn45)[C@@H]2CC3)cc1C", "tested_target": "Human recombinant PDE3A (hPDE3A) (Homo sapiens, UniProt Q14432)", "assigned_category": "met"}
{"molecule": "Cc1nocc1C(=O)N1CC[C@@H](C)[C@H](c2cc(C(F)F)nc3ncnn23)C1", "tested_target": "Human recombinant PDE3A (hPDE3A) (Homo sapiens, UniProt Q14432)", "assigned_category": "met"}
{"molecule": "CC1(c2ccnc3ncnn23)CCCN(C(=O)c2ccc3occc3c2)C1 (centres unmarked)", "tested_target": "Human recombinant PDE3A (hPDE3A) (Homo sapiens, UniProt Q14432)", "assigned_category": "met"}
{"molecule": "Cc1cc(C(=O)N2CC[C@@H](C)[C@H](c3cc(C(F)F)nc4ncnn34)C2)cc(C)[n+]1[O-]", "tested_target": "Human recombinant PDE3A (hPDE3A) (Homo sapiens, UniProt Q14432)", "assigned_category": "met"}
{"molecule": "Cc1nc(C(=O)N2CC[C@@H](C)[C@H](c3cc(C(F)F)nc4ncnn34)C2)c(C(F)(F)F)o1", "tested_target": "Human recombinant PDE3A (hPDE3A) (Homo sapiens, UniProt Q14432)", "assigned_category": "met"}
{"molecule": "Cc1nn(C)cc1C(=O)N1CC[C@@H](C)[C@H](c2cc(C(F)F)nc3ncnn23)C1", "tested_target": "Human recombinant PDE3A (hPDE3A) (Homo sapiens, UniProt Q14432)", "assigned_category": "met"}
{"molecule": "Cc1cc(C(=O)N2CC[C@@H](C)[C@H](c3cc(C(F)F)nc4ncnn34)C2)cc(C(F)F)n1", "tested_target": "Human recombinant PDE3A (hPDE3A) (Homo sapiens, UniProt Q14432)", "assigned_category": "met"}
{"molecule": "C[C@@H]1CCN(C(=O)c2ccc(C3CC3)c(F)c2)C[C@H]1c1cc(C(F)F)nc2ncnn12", "tested_target": "Human recombinant PDE3A (hPDE3A) (Homo sapiens, UniProt Q14432)", "assigned_category": "not met"}
{"molecule": "C[C@@H]1CCN(C(=O)c2cnc(O)c(Cl)c2)C[C@H]1c1cc(C(F)F)nc2ncnn12", "tested_target": "Human recombinant PDE3A (hPDE3A) (Homo sapiens, UniProt Q14432)", "assigned_category": "met"}
{"molecule": "Cc1nc2ccc(C(=O)N3[C@H]4CC[C@H](c5cc(C(F)F)nc6ncnn56)[C@@H]3CC4)cc2o1", "tested_target": "Human recombinant PDE3A (hPDE3A) (Homo sapiens, UniProt Q14432)", "assigned_category": "met"}
{"molecule": "C[C@@H]1CCN(C(=O)c2ccc(F)cn2)C[C@H]1c1cc(C(F)F)nc2ncnn12", "tested_target": "Human recombinant PDE3A (hPDE3A) (Homo sapiens, UniProt Q14432)", "assigned_category": "met"}
{"molecule": "CCCC[C@H]1CCN(C(=O)c2cc(C)nc(C)c2)C[C@H]1c1cc(C(F)F)nc2ncnn12 (mixture of isomers)", "tested_target": "Human recombinant PDE3A (hPDE3A) (Homo sapiens, UniProt Q14432)", "assigned_category": "met"}
{"molecule": "C[C@@H]1CCN(C(=O)c2cc3ccc(C(F)(F)F)cc3[nH]2)C[C@H]1c1cc(C(F)F)nc2ncnn12", "tested_target": "Human recombinant PDE3A (hPDE3A) (Homo sapiens, UniProt Q14432)", "assigned_category": "not met"}
{"molecule": "Cc1cc(C(=O)N2CC[C@@H](C)[C@H](c3cc(C)nc4ncnn34)C2)cc(C2CC2)n1", "tested_target": "Human recombinant PDE3A (hPDE3A) (Homo sapiens, UniProt Q14432)", "assigned_category": "not met"}
{"molecule": "Cc1cccnc1C(=O)N1CC[C@@H](C)[C@H](c2cc(C(F)F)nc3ncnn23)C1", "tested_target": "Human recombinant PDE3A (hPDE3A) (Homo sapiens, UniProt Q14432)", "assigned_category": "met"}
{"molecule": "Cc1cc2ccc(C(=O)N3[C@H]4CC[C@H](c5cc(C(F)F)nc6ncnn56)[C@@H]3CC4)cn2c1", "tested_target": "Human recombinant PDE3A (hPDE3A) (Homo sapiens, UniProt Q14432)", "assigned_category": "not met"}
{"molecule": "Cc1cnc(C(F)(F)F)cc1C(=O)N1CC[C@@H](C)[C@H](c2cc(C(F)F)nc3ncnn23)C1", "tested_target": "Human recombinant PDE3A (hPDE3A) (Homo sapiens, UniProt Q14432)", "assigned_category": "met"}
{"molecule": "C[C@@H]1CCN(C(=O)c2ccc(F)c(OC(F)F)c2)C[C@H]1c1cc(C(F)F)nc2ncnn12", "tested_target": "Human recombinant PDE3A (hPDE3A) (Homo sapiens, UniProt Q14432)", "assigned_category": "not met"}
{"molecule": "C[C@@H]1CCN(C(=O)c2cccc3ncoc23)C[C@H]1c1cc(C(F)F)nc2ncnn12", "tested_target": "Human recombinant PDE3A (hPDE3A) (Homo sapiens, UniProt Q14432)", "assigned_category": "met"}

Where do the numbers come from? From patent US10947242B2.
